# test system: c-Src SH2;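 further: peptide library displayed on the E. coli surface as eCPX fusions, selected cells deep-sequenced, score is each peptide's frequency after selection divided by its frequency in the input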
# assay overview: SH2 binding enrichment of the phosphorylated peptide, bacterial display (enrichment ratio); higher = better substrate or ligand; peptides without Tyr show the background
result type: SH2 binding enrichment

For orientation, consider the following solved cases.
query sequence	SH2 binding enrichment
KLFRVYCDMNT [FGB_Y269_P265L_YF]	0.918
STTSDYQWDVS [MTDH_Y364]	0.449
DPTFGYEDFTR [SESN2_Y323]	5.25

[I] PQAVTYAKVKH [LILRB4_Y360]
[II] ISIFHCAKGQP [MPZ_Y82_Y82C]
[III] SRDDFYETIAM [NPY1R_Y347_D346Y_YF]
[IV] ISRASYYRKGG [ALK_Y1282_Y1278S]
[V] LPSKDYAEVRR [HP_Y272_G276R]
Rank the items in ascending order with respect to SH2 binding enrichment. # respond with the labels, arranged in the requested order
IV, II, III, V, I
(IV: 0.362, II: 0.524, III: 0.916, V: 1.72, I: 2.6)

[P] RGYRQYAYDGK [HLA-A_Y140_D140Y]
[Q] QLAPQYTFAQG [FLNA_Y1761_YF]
[R] REENGYNTFAS [FGF10_Y161_I156R_YF]
[S] KGTAGYTTVAV [RET_Y752_R749T]
Rank the items in ascending order with respect to SH2 binding enrichment. # respond with the labels, arranged in the requested order
P, Q, R, S

[A] SGSIHYSHVPR [GLB1_Y57_R59H]
[B] LVMFISAIFGM [SCN1A_Y1684_Y1684S]
[C] RGEKQYLAAPL [ALOX12_Y295]
[D] GGKYSYLKVGH [GRM3_Y480]
Rank the items in ascending order with respect to SH2 binding enrichment. # respond with the labels, arranged in the requested order
C, A, B, D
(C: 0.409, A: 0.593, B: 0.893, D: 1.79)
